Reported CC50 at 24 h values follow for various compounds
experiment: Cytotoxicity against human LO2 cells assessed as reduction in cell viability after 24 hrs by MTT assay; type: cell-based, L02

The compound identified as CC(C)=CC[C@@H](OC(=O)/C=C\C(=O)c1ccc(Cl)cc1)C1=CC(=O)c2c(O)ccc(O)c2C1=O registered its CC50 at 24 h at > 100 µM

The compound CC(C)=CC[C@@H](OC(=O)/C=C\C(=O)c1ccc(C)cc1Cl)C1=CC(=O)c2c(O)ccc(O)c2C1=O showed CC50 at 24 h equal to > 100 µM

Quick note, CC50 at 24 h for CC(C)=CC[C@@H](OC(=O)/C=C\C(=O)c1ccccc1)C1=CC(=O)c2c(O)ccc(O)c2C1=O landed at > 100 µM

# CC50 at 24 h (compound: CC(C)=CC[C@@H](OC(=O)/C=C\C(=O)c1cc(F)ccc1C)C1=CC(=O)c2c(O)ccc(O)c2C1=O ) is 93.5 µM
